Numbers sourced from paper PMC5700166.

Let's look at some sequences and their measured binding signal.
Biological target: GST-Aq-NF-kB (Amphimedon queenslandica, UniProt A9Y5G7 2-389)
Sequence: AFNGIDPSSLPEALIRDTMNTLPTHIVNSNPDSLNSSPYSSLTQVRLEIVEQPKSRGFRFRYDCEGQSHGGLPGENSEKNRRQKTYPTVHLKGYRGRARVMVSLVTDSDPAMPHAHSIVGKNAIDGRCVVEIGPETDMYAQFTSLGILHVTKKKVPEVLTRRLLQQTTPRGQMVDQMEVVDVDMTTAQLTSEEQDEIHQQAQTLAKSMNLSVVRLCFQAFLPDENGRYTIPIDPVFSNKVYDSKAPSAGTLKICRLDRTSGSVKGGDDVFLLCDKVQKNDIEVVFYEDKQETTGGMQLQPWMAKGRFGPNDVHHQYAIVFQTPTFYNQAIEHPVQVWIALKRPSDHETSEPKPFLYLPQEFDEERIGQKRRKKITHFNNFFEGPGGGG
Experiment: protein-binding microarray (PBM); PBM: ~300 nM protein, 6 mM HEPES pH 7.8, 80 mM KCl, 0.5 mM EDTA, 0.5 mM EGTA, 6% glycerol, 35 ng/ul poly-dIdC, 1% milk, 1 h, room temperature; Ap Aiptasia and Nv Nematostella (sea anemones) / Co Capsaspora / Aq Amphimedon (sponge) / Dm Drosophila / Hu human; RHD is the Rel homology domain; high values mean tight binding
Conditions: dsDNA, one strand shown

# BIOPOLYMER SEQUENCE, UNIT ABBREV, binding signal
rows = [
    ("CCGATTAACATCAGAAATTACCATGATGTTAATCGGGTCTTGATTCGCTTGACGCTGCTG", "z-score", 1.16),
    ("CCGATTAACATCAGGGGGGTACATGATGTTAATCGGGTCTTGATTCGCTTGACGCTGCTG", "z-score", 3.31),
    ("CCGATTAACATCAAGTTTCCCCATGATGTTAATCGGGTCTTGATTCGCTTGACGCTGCTG", "z-score", 5.26),
    ("CCGATTAACATCAAATACCCCCATGATGTTAATCGGGTCTTGATTCGCTTGACGCTGCTG", "z-score", 4.48),
    ("CCGATTAACATCACGGGTATTCCTGATGTTAATCGGGTCTTGATTCGCTTGACGCTGCTG", "z-score", 5.48),
    ("CCGATTAACATCAAATTCCCCCATGATGTTAATCGGGTCTTGATTCGCTTGACGCTGCTG", "z-score", 6.9),
    ("CCGATTAACATCACGGAAACCACTGATGTTAATCGGGTCTTGATTCGCTTGACGCTGCTG", "z-score", 1.46),
    ("CCGATTAACATCAGCGATTCCCCTGATGTTAATCGGGTCTTGATTCGCTTGACGCTGCTG", "z-score", 4.44),
    ("CCGATTAACATCAAAGGTCCCCCTGATGTTAATCGGGTCTTGATTCGCTTGACGCTGCTG", "z-score", 4.58),
    ("CCGATTAACATCAAATTTCCCCCTGATGTTAATCGGGTCTTGATTCGCTTGACGCTGCTG", "z-score", 7.79),
    ("CCGATTAACATCAAGGAAACTCCTGATGTTAATCGGGTCTTGATTCGCTTGACGCTGCTG", "z-score", 2.64),
    ("CCGATTAACATCAGGGGAAGCTATGATGTTAATCGGGTCTTGATTCGCTTGACGCTGCTG", "z-score", 3.92),
    ("CCGATTAACATCAGGGAAAGCTATGATGTTAATCGGGTCTTGATTCGCTTGACGCTGCTG", "z-score", 3.54),
    ("CCGATTAACATCAGGCAATGCCCTGATGTTAATCGGGTCTTGATTCGCTTGACGCTGCTG", "z-score", 1.31),
    ("CCGATTAACATCAGAAAAATTCCTGATGTTAATCGGGTCTTGATTCGCTTGACGCTGCTG", "z-score", 2.21),
    ("CCGATTAACATCAGGGGGGTGCATGATGTTAATCGGGTCTTGATTCGCTTGACGCTGCTG", "z-score", 3.59),
    ("CCGATTAACATCAAGAGATCCCCTGATGTTAATCGGGTCTTGATTCGCTTGACGCTGCTG", "z-score", 4.97),
    ("CCGATTAACATCAAAAAAATTCCTGATGTTAATCGGGTCTTGATTCGCTTGACGCTGCTG", "z-score", 2.87),
    ("CCGATTAACATCAAAGCACCCCCTGATGTTAATCGGGTCTTGATTCGCTTGACGCTGCTG", "z-score", 4.36),
    ("CCGATTAACATCAGGGATTCCACTGATGTTAATCGGGTCTTGATTCGCTTGACGCTGCTG", "z-score", 4.11),
    ("CCGATTAACATCAGAAAAACCCCTGATGTTAATCGGGTCTTGATTCGCTTGACGCTGCTG", "z-score", 7.67),
    ("CCGATTAACATCAAATAAGTCCCTGATGTTAATCGGGTCTTGATTCGCTTGACGCTGCTG", "z-score", 6.24),
    ("CCGATTAACATCAGATTTTTCCCTGATGTTAATCGGGTCTTGATTCGCTTGACGCTGCTG", "z-score", 5.5),
    ("CCGATTAACATCAGGGAAATAAATGATGTTAATCGGGTCTTGATTCGCTTGACGCTGCTG", "z-score", 4.44),
    ("CCGATTAACATCAAAAGAATCCCTGATGTTAATCGGGTCTTGATTCGCTTGACGCTGCTG", "z-score", 4.69),
    ("CCGATTAACATCACCCGGGAAAATGATGTTAATCGGGTCTTGATTCGCTTGACGCTGCTG", "z-score", 2.6),
    ("CCGATTAACATCAACATTTCCCCTGATGTTAATCGGGTCTTGATTCGCTTGACGCTGCTG", "z-score", 5.86),
    ("CCGATTAACATCAGGGGGATTTATGATGTTAATCGGGTCTTGATTCGCTTGACGCTGCTG", "z-score", 7.3),
    ("CCGATTAACATCAGGGCATTCCATGATGTTAATCGGGTCTTGATTCGCTTGACGCTGCTG", "z-score", 2.1),
    ("CCGATTAACATCAAAAATTCCCTTGATGTTAATCGGGTCTTGATTCGCTTGACGCTGCTG", "z-score", 7.62),
    ("CCGATTAACATCACGGGGGGGGCTGATGTTAATCGGGTCTTGATTCGCTTGACGCTGCTG", "z-score", 4.34),
    ("CCGATTAACATCAGGGAAAATTATGATGTTAATCGGGTCTTGATTCGCTTGACGCTGCTG", "z-score", 6.77),
    ("CCGATTAACATCAGGGGAGGTACTGATGTTAATCGGGTCTTGATTCGCTTGACGCTGCTG", "z-score", 4.35),
    ("CCGATTAACATCAACGTTTTCCCTGATGTTAATCGGGTCTTGATTCGCTTGACGCTGCTG", "z-score", 3.21),
    ("CCGATTAACATCAGGGAGACCCCTGATGTTAATCGGGTCTTGATTCGCTTGACGCTGCTG", "z-score", 6.87),
    ("CCGATTAACATCAGGGAAATTCATGATGTTAATCGGGTCTTGATTCGCTTGACGCTGCTG", "z-score", 5.94),
]
